# Test system: Balb/c mice
# protocol.text: Polypeptide chip-based vaccine immunogenicity scoring system
# Assay type: in vivo
# measurement.parameters: adjuvant Adju-Phos; 7 peptides co-immunized in mice
Provide the reported 3) Timing-sequence response and specificity C2 of each item.
Numbers only.

Known results for sequences:
LQDLKWARFPKS [SEQ ID NO:29] | 1244
SNLKPFER (SARS-CoV-2) [SEQ ID NO:36] | 1244
MEVTPSGTWLTY (SARS-CoV-2) [SEQ ID NO:22] | 1244

Please go through the list and note 3) Timing-sequence response and specificity C2 for each sequence.
1. SVYAWNRKR (SARS-CoV-2) [SEQ ID NO:3]
2. YGANKDGI (SARS-CoV-2) [SEQ ID NO:21]
3. KLDDKDPNFK (SARS-CoV-2) [SEQ ID NO:20]
4. VYDPLQPEL (SARS-CoV-2) [SEQ ID NO:34]

Result string:
1. 1244
2. 1244
3. 1244
4. 1244

###

Provide the reported 1) 95 percentile grouping number A of each item.
# Tested on: Balb/c mice
# protocol.text: Polypeptide chip-based vaccine immunogenicity scoring system
# Type: in vivo
# measurement.parameters: adjuvant Imjet Alumn; 7 peptides co-immunized in mice
Give bare numbers.

Known results for sequences:
VYDPLQPEL (SARS-CoV-2) [SEQ ID NO:34] | 5
KLDDKDPNFK (SARS-CoV-2) [SEQ ID NO:20] | 0
LQDLKWARFPKS [SEQ ID NO:29] | 5
SNLKPFER (SARS-CoV-2) [SEQ ID NO:36] | 4.5
YGANKDGI (SARS-CoV-2) [SEQ ID NO:21] | 2

Please go through the list and note 1) 95 percentile grouping number A for each sequence.
1. SVYAWNRKR (SARS-CoV-2) [SEQ ID NO:3]
2. MEVTPSGTWLTY (SARS-CoV-2) [SEQ ID NO:22]

Result string:
[5, 5]

###

# System: Balb/c mice
# protocol.text: Polypeptide chip-based vaccine immunogenicity scoring system
# Assay type: in vivo
# measurement.parameters: adjuvant Adju-Phos; 7 peptides co-immunized in mice
Assign class by 2) Mouse performance B: not lower than 2 means MET; lower than 2 means NOT MET.

Query string: Given the entry YGANKDGI (SARS-CoV-2) [SEQ ID NO:21] , answer whether its 2) Mouse performance B meets or surpasses 2.
Result string: MET

Query string: Given the entry LQDLKWARFPKS [SEQ ID NO:29] , answer whether its 2) Mouse performance B meets or surpasses 2.
Result string: NOT MET

Query string: Given the entry SNLKPFER (SARS-CoV-2) [SEQ ID NO:36] , answer whether its 2) Mouse performance B meets or surpasses 2.
Result string: NOT MET

Query string: Given the entry SVYAWNRKR (SARS-CoV-2) [SEQ ID NO:3] , answer whether its 2) Mouse performance B meets or surpasses 2.
Result string: MET

Query string: Given the entry KLDDKDPNFK (SARS-CoV-2) [SEQ ID NO:20] , answer whether its 2) Mouse performance B meets or surpasses 2.
Result string: NOT MET

Query string: Given the entry VYDPLQPEL (SARS-CoV-2) [SEQ ID NO:34] , answer whether its 2) Mouse performance B meets or surpasses 2.
Result string: MET

Query string: Given the entry MEVTPSGTWLTY (SARS-CoV-2) [SEQ ID NO:22] , answer whether its 2) Mouse performance B meets or surpasses 2.
Result string: MET
